- test.name: Intestinal S9 fraction stability and DON release
- Type: in vitro ADME
- stated.conditions: human
reported.metric: remaining at 1 h, 10 μM (%)
Please reply with the bare figure in % and do not write the unit itself.

Please fill in: remaining at 1 h, 10 μM reported for CC(=O)N[C@@H](Cc1c[nH]c2ccccc12)C(=O)N[C@@H](CCC(=O)C=[N+]=[N-])C(=O)OC(C)C [DRP-104] = 0

* * *

- test.name: Plasma stability, human plasma
- Type: in vitro ADME
- stated.conditions: % remaining at 60 minutes, 37°C
reported.metric: remaining at 1 h, 20 μM

remaining at 1 h, 20 μM reading for CC(=O)N[C@@H](Cc1c[nH]c2ccccc12)C(=O)N[C@@H](CCC(=O)C=[N+]=[N-])C(=O)OC(C)C [DRP-104] : > 90%
